B1: PhoQ; a variant is named by its letters at X, in order, P23837 (parent)
chain: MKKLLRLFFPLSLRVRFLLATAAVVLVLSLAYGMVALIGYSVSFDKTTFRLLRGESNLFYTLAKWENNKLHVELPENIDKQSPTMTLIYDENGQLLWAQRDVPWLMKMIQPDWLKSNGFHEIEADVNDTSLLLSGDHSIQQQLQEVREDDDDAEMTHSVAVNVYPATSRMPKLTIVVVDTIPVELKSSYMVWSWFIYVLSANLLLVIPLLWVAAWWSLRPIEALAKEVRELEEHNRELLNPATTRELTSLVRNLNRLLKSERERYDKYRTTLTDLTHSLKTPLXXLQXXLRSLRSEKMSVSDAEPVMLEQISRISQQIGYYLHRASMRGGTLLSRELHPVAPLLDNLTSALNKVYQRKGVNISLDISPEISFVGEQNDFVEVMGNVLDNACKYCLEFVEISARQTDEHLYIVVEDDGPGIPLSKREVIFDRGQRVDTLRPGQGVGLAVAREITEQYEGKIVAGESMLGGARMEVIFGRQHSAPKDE

variants of: B1; experiment: enrichment ratio after two sorts for PhoP signalling (ratio (wild type AVST 3.29)); higher = more functional; conditions: with PhoP (E. coli)
The full ranking holds about 140,000 sequences; the median of “enrichment ratio after two sorts for PhoP signalling” is about 0, and the highest 2% start at about 11. The sample as a whole holds a higher share of the highest values than the screen did.
Parameter: enrichment ratio. Scope: all listed entries.
readout.kind: enrichment ratio

• LAQL = ≤ 0.25
• SKAG = ≤ 0.25
• KHWM = ≤ 0.25
• WLMW = ≤ 0.25
• YAGF = ≤ 0.25
• SKNA = ≤ 0.25
• PYGV = ≤ 0.25
• QCNL = ≤ 0.25
• HAQL = ≤ 0.25
• GIGD = ≤ 0.25
• TAPV = ≤ 0.25
• TGQY = 5.59
• QCDS = ≤ 0.25
• TVQL = 16.7
• SFID = ≤ 0.25
• RVMN = ≤ 0.25
• WHFY = ≤ 0.25
• YEES = ≤ 0.25
• KYGE = ≤ 0.25
• FFRV = ≤ 0.25
• SIWI = ≤ 0.25
• MMQL = ≤ 0.25
• SFQS = ≤ 0.25
• SIGY = 14.3
• RSCH = ≤ 0.25
• CFSY = ≤ 0.25
• TSQL = 14
• SIGE = 16.9
• SSAT = 8.03
• MAHY = 20.2
• KEFR = ≤ 0.25
• TAQF = 14
• STMI = 14.9
• ACNK = ≤ 0.25
• SSVT = 14.6
• VWEC = ≤ 0.25
• SSNT = ≤ 0.25
• QGLV = 7.45
• SPMI = ≤ 0.25
• SIMI = 17.4
• TNVF = ≤ 0.25
• KHRA = ≤ 0.25
• TAMS = 7.61
• YVCF = 0.805
• LNWD = ≤ 0.25
• FGLA = 12.2
• TAQS = 14.2
• SRGE = ≤ 0.25
• LCCL = ≤ 0.25
• QCWI = 37.7
• GTKH = ≤ 0.25
• SPQL = ≤ 0.25
• YGCE = ≤ 0.25
• IAPL = 0.723
• TAHY = 27.1
• FTCV = 0.528
• LCWY = ≤ 0.25
• ISMG = 1.17
• ISVD = ≤ 0.25
• DDPW = ≤ 0.25
• NVQL = ≤ 0.25
• ACCV = 8.87
• YECK = ≤ 0.25
• TMAH = 1.31
• KYGY = ≤ 0.25
• SQFI = ≤ 0.25
• KMDL = ≤ 0.25
• QCWL = 13.1
• MVGN = 10.6
• SSLS = 11.4
• PMVM = ≤ 0.25
• RTWK = ≤ 0.25
• NVML = ≤ 0.25
• QCGD = ≤ 0.25
• TAPI = ≤ 0.25
• LVRD = ≤ 0.25
• AMGN = 1.38
• SSLK = 5.98
• RRYY = ≤ 0.25
• TAHF = 10.3
• KFFK = ≤ 0.25
• ESQM = ≤ 0.25
• KSVT = ≤ 0.25
• GIFA = ≤ 0.25
• IMQV = ≤ 0.25
• TAGF = 13.2
• QSIY = ≤ 0.25
• KAHY = ≤ 0.25
• GGWL = ≤ 0.25
• TSWY = 14.1
• SSLT = 12

Sourced from a collection of fitness landscapes (doi:10.1126/science.1257360)
